TGI by entry:
# System: SF-268 CNS
# testMethodNotes: NCI tumour cell line growth inhibition, 48 h
testReadout: TGI

{"compound": "Cc1no[n+]([O-])c1/C=N/NS(=O)(=O)c1ccccc1", "observedMeasurement": "> 100 µM"}
{"compound": "CC(=O)NC1CCCN(O)C(=O)/C=C(/C)CCOC(=O)C(NC(C)=O)CCCN(O)C(=O)/C=C(/C)CCOC(=O)C(NC(C)=O)CCCN(O)C(=O)/C=C(/C)CCOC1=O.[Fe] (stereo not given)", "observedMeasurement": "> 100 µM"}
{"compound": "CC1C(O)[C@@]2(OC[C@@]34C(=O)CC5(O)[C@H](CCC6Cc7nc8c(nc7C[C@]65C)CC5CC[C@@H]6C7=C[C@H]9O[C@@]%10(O[C@@](C)(CO)C[C@@H]%10O)C(C)[C@@]9(O)[C@]7(C)[C@@H](O)CC6[C@]5(C)C8)C3=CC[C@H]4C2C)OC1(C)C (stereo not given in full)", "observedMeasurement": "0.37 µM"}
{"compound": "CC1(C)C(=O)CCC(=O)C(C)(C)C2=CC=C(O2)C(C)(C)C(=O)CCC(=O)C(C)(C)C2=CC=C1O2", "observedMeasurement": "> 100 µM"}
{"compound": "CC(=O)C(CN(C)Cc1ccccc1)C(c1ccccc1)c1c(O)c2ccccc2oc1=O (stereo not given)", "observedMeasurement": "> 100 µM"}
{"compound": "N=c1oc2ccc([N+](=O)[O-])cc2cc1C(=O)Nc1ccccn1", "observedMeasurement": "> 100 µM"}
{"compound": "CC(C)(C)C(=O)CC(=O)C(F)(F)C(F)(F)C(F)(F)F.CC(C)(C)C(=O)CC(=O)C(F)(F)C(F)(F)C(F)(F)F.CC(C)(C)C(=O)CC(=O)C(F)(F)C(F)(F)C(F)(F)F.[Er]", "observedMeasurement": "> 100 µM"}
{"compound": "O=[N+]([O-])c1ccc(OP(=O)(O)OCC2OC(CP(=O)(O)O)C(O)C2O)cc1 (stereo not given)", "observedMeasurement": "> 100 µM"}
{"compound": "O=C(Nc1ccccc1)c1cc2c(cc1Cl)SC(NNCCO)=NS2(=O)=O", "observedMeasurement": "> 100 µM"}
{"compound": "CCN1CCN(CC(=O)Nc2nc3ccc(NCc4ccc(C)cc4)cc3s2)CC1", "observedMeasurement": "16.5 µM"}
{"compound": "Cc1cc(O)c2c(c1)C(=O)C=C(Br)C2=O", "observedMeasurement": "98.9 µM"}
{"compound": "COC(=O)CCN1CCN(CCO)CC1C (stereo not given)", "observedMeasurement": "> 10 µM"}
{"compound": "Cc1cc(N2CCN(C)CC2)nc(N(CCNc2ccnc3cc(Cl)ccc23)Cc2ccco2)n1", "observedMeasurement": "20.3 µM"}
{"compound": "CCOc1ccc(/C=N\\N2C(=O)c3ccccc3C2=O)cc1", "observedMeasurement": "> 100 µM"}
{"compound": "O=C1/C(=C/c2ccc3c(c2)OCO3)Sc2scc(-c3ccc(O)c(O)c3)[n+]21", "observedMeasurement": "97.2 µM"}
{"compound": "COc1ccc2c(c1)CC[C@@H]1C2CC[C@]2(C)C(=O)N(CCN3CCCCC3)C(=O)CC12 (stereo not given in full)", "observedMeasurement": "> 100 µM"}
{"compound": "Cc1ccn2c(-c3csc(Nc4cccc(O)c4)n3)c(C)nc2c1", "observedMeasurement": "42.6 µM"}
{"compound": "CC(=O)Nc1cc(C(c2ccccc2)c2ccccc2)cc(C(c2ccccc2)c2ccccc2)c1C", "observedMeasurement": "> 100 µM"}
{"compound": "CN1C(=O)CN=C(c2ccccc2F)c2cc(N=C=S)ccc21", "observedMeasurement": "> 100 µM"}
{"compound": "COC1=CCC2=C(CCN(C(=O)C3CC3)C2Cc2ccc(OC)c(O)c2)C1 (stereo not given)", "observedMeasurement": "> 100 µM"}
{"compound": "NC(Cc1ccc(O)cc1)C(=O)N/N=C/c1ccc(N(CCCl)CCCl)cc1 (stereo not given)", "observedMeasurement": "87.8 µM"}
{"compound": "CC(=O)[C@H]1[C@@H](OCc2ccccc2)O[N+]([O-])=C(C)[C@@H]1c1ccccc1", "observedMeasurement": "> 100 µM"}
{"compound": "C[C@@H](Oc1cc(-c2cnn(C3CC4(CNC4)C3)c2)cnc1N)c1c(Cl)ccc(F)c1Cl", "observedMeasurement": "18.2 µM"}
{"compound": "CC1(C)CC(=O)C(CC2C(=O)c3ccccc3C2=O)C(=O)C1C(=O)C(=O)Nc1cccc2ccc(O)cc12 (stereo not given)", "observedMeasurement": "> 100 µM"}
{"compound": "CC(C)CC(NC=O)C(=O)NC(Cc1ccccc1)NC(=O)CNC(=O)C(C)NC(=O)OC(C)(C)C (stereo not given)", "observedMeasurement": "> 100 µM"}
{"compound": "O=C(CCCCCNC1=CC(=O)c2ccccc2C1=O)NCCC[Te]c1ccccc1", "observedMeasurement": "1.41 µM"}
{"compound": "Clc1cc2nnn(C3CCCCO3)c2cc1Cl (stereo not given)", "observedMeasurement": "> 100 µM"}
{"compound": "c1ccc(-c2sc(-c3ccccc3)c3c2C2CCC3C2)cc1", "observedMeasurement": "> 100 µM"}
{"compound": "CC(=O)O[C@@H]1[C@@H](C)[C@]2(CC(c3ccoc3)OC2O)C2CCC3O[C@]3(C)[C@]2(C)[C@@H]1OC(C)=O (stereo not given in full)", "observedMeasurement": "> 100 µM"}
{"compound": "[O-]/N=N\\c1on[n+](CCc2ccccc2)c1Cc1c(/N=N/[O-])on[n+]1CCc1ccccc1", "observedMeasurement": "> 100 µM"}

Origin of the recorded values: PubChem BioAssay (NCI)
